Experiment: Antiproliferative activity against human MDA231 cells after 24 hrs by trypan blue exclusion assay
Assay type: functional, cell-based
Settings: MDA-MB-231, 24 h

compoundSmiles: N#Cc1ccc(Cn2cc(/C=C3\NC(=O)NC3=O)c3ccccc32)cc1
unitOfMeasure: µM
IC50: 17.6
//
compoundSmiles: COC(=O)c1ccc(Cn2cc(/C=C3\NC(=O)NC3=O)c3ccccc32)cc1
unitOfMeasure: µM
IC50: 18.4
//
compoundSmiles: O=C1NC(=O)/C(=C/c2cn(Cc3ccccc3Br)c3ccccc23)N1
unitOfMeasure: µM
IC50: 21.8
//
compoundSmiles: O=C1NC(=O)/C(=C/c2cn(Cc3ccc([N+](=O)[O-])cc3)c3ccccc23)N1
unitOfMeasure: µM
IC50: 23.3
//
compoundSmiles: O=C1NC(=O)/C(=C/c2cn(Cc3ccc(F)cc3)c3ccccc23)N1
unitOfMeasure: µM
IC50: 32.8
//
compoundSmiles: O=C1NC(=O)/C(=C/c2cn(Cc3ccccc3)c3ccc(Cl)cc23)N1
unitOfMeasure: µM
IC50: 18
//
compoundSmiles: O=C1NC(=O)/C(=C/c2cn(Cc3ccccc3)c3ccc(Br)cc23)N1
unitOfMeasure: µM
IC50: 12.4
//
compoundSmiles: Cc1ccc(Cn2cc(/C=C3\NC(=O)NC3=O)c3ccccc32)cc1
unitOfMeasure: µM
IC50: 22.1
//
compoundSmiles: COc1ccc(Cn2cc(/C=C3\NC(=O)NC3=O)c3cc(Br)ccc32)cc1
unitOfMeasure: µM
IC50: 23.2
//
compoundSmiles: O=C1NC(=O)/C(=C/c2cn(Cc3ccccc3)c3ccccc23)N1
unitOfMeasure: µM
IC50: 15.7

====

Test system: MCF7
Assay: Antiproliferative activity against human MCF7 cells after 24 hrs by trypan blue exclusion assay
Format: functional, cell-based
Conditions: MCF7, 24 h
propertyMeasured: IC50

compoundSmiles: Cc1ccc2c(c1)c(/C=C1\NC(=O)NC1=O)cn2Cc1ccccc1
propertyMeasured: IC50
assayValue: 5.2 µM
--
compoundSmiles: O=C1NC(=O)/C(=C/c2cn(Cc3ccccc3)c3ccccc23)N1
propertyMeasured: IC50
assayValue: 27.3 µM
--
compoundSmiles: COc1ccc(Cn2cc(/C=C3\NC(=O)NC3=O)c3cc(Br)ccc32)cc1
propertyMeasured: IC50
assayValue: 16.4 µM
--
compoundSmiles: COC(=O)c1ccc(Cn2cc(/C=C3\NC(=O)NC3=O)c3ccccc32)cc1
propertyMeasured: IC50
assayValue: 15.4 µM

====

Reported IC50 values for a set of compounds
System: NCI-H460
Assay: Antiproliferative activity against human H460 cells after 24 hrs by trypan blue exclusion assay
Type: functional, cell-based
Details: NCI-H460, 24 h

compoundSmiles: Cc1ccc2c(c1)c(/C=C1\NC(=O)NC1=O)cn2Cc1ccccc1
subjectOfTest: NCI-H460
unitOfMeasure: µM
comparisonSign: =
IC50: 14.6
--
compoundSmiles: O=c1[nH]cc(F)c(=O)[nH]1
subjectOfTest: NCI-H460
unitOfMeasure: µM
comparisonSign: =
IC50: 2.7
--
compoundSmiles: O=C1NC(=O)/C(=C/c2cn(Cc3ccc([N+](=O)[O-])cc3)c3ccccc23)N1
subjectOfTest: NCI-H460
unitOfMeasure: µM
comparisonSign: >
IC50: 40
--
compoundSmiles: N#Cc1ccc(Cn2cc(/C=C3\NC(=O)NC3=O)c3ccccc32)cc1
subjectOfTest: NCI-H460
unitOfMeasure: µM
comparisonSign: =
IC50: 19.1
--
compoundSmiles: O=C1NC(=O)/C(=C/c2cn(Cc3ccccc3Br)c3ccccc23)N1
subjectOfTest: NCI-H460
unitOfMeasure: µM
comparisonSign: =
IC50: 16.9
--
compoundSmiles: COc1ccc(Cn2cc(/C=C3\NC(=O)NC3=O)c3cc(Br)ccc32)cc1
subjectOfTest: NCI-H460
unitOfMeasure: µM
comparisonSign: =
IC50: 22.3
--
compoundSmiles: O=C1NC(=O)/C(=C/c2cn(Cc3ccc(F)cc3)c3ccccc23)N1
subjectOfTest: NCI-H460
unitOfMeasure: µM
comparisonSign: =
IC50: 16.3
--
compoundSmiles: O=C1NC(=O)/C(=C/c2cn(Cc3ccccc3)c3ccccc23)N1
subjectOfTest: NCI-H460
unitOfMeasure: µM
comparisonSign: =
IC50: 14.2
--
compoundSmiles: O=C1NC(=O)/C(=C/c2cn(Cc3ccccc3)c3ccc(Br)cc23)N1
subjectOfTest: NCI-H460
unitOfMeasure: µM
comparisonSign: >
IC50: 40
--
compoundSmiles: COc1ccc2c(c1)c(/C=C1\NC(=O)NC1=O)cn2Cc1ccccc1
subjectOfTest: NCI-H460
unitOfMeasure: µM
comparisonSign: =
IC50: 28.4
